ASSAY TARGET: PRMT5/MEP50 complex (Homo sapiens, UniProt O14744)
Sequence (O14744 whole entry): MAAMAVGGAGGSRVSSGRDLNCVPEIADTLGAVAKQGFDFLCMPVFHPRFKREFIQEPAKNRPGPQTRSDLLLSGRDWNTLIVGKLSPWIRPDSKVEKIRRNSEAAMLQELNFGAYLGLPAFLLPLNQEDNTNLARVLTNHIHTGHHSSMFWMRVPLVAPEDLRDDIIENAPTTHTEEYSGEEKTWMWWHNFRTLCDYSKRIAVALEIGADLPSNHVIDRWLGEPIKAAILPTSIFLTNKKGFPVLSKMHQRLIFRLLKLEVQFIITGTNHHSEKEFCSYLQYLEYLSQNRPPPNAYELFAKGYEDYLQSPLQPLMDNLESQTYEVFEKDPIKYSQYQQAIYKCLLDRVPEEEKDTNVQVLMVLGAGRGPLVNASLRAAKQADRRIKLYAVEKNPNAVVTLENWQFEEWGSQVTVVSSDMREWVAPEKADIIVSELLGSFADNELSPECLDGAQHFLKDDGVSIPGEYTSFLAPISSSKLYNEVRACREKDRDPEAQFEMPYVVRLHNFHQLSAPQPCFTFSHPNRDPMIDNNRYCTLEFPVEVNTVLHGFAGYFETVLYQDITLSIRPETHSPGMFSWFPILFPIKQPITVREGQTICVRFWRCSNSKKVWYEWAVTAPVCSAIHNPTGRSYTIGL
Sequence (Q9BQA1 whole entry, further chain): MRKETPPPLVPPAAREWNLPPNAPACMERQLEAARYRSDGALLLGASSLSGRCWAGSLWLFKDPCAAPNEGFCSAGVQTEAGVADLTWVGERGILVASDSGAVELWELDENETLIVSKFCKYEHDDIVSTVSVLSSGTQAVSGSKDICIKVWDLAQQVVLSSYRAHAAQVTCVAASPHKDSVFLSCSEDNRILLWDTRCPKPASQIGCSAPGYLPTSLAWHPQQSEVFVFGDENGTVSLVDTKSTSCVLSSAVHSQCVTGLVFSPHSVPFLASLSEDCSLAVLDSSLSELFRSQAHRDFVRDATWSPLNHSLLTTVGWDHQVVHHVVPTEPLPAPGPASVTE
ASSAY PROTOCOL: biochemical
Description: Inhibition of PRMT5 (1 to 637 residues)/MEP504 (2 to 342 residues)(unknown origin) expressed in baculovirus infected Sf21 insect cells using histone H4/SAM as substrate incubated for 5 hrs by MTase Glo assay
Kindly state pIC50 for each of the entries shown.
// scale note: pIC50 = -log10(conc_M); give the bare number

GET /value?item= COc1ccc2c(c1)C(=O)N(Cc1cnc(NC(=N)N)s1)C2C(=O)NCc1ccc(F)cc1 (configuration not stated) &field=pIC50 returns 7.29

GET /value?item= N=C(N)Nc1cc(CN2C(=O)c3ccccc3C2C(=O)NCc2ccc(F)cc2)ccn1 (configuration not stated) &field=pIC50 returns 4.57

* * *

ASSAY PROTOCOL: Half life in Wistar Han rat at 1 mg/kg, po or 0.5 mg/kg, iv
Assay type: ADME, organism-based
PARTICULARS: in vivo
OBSERVED PROPERTY: half-life (min)
# value in min; strip the unit string

GET /value?item= `Nc1ccc2[nH]c(CN3C(=O)c4cc(F)ccc4[C@]34CCN(Cc3ccc(F)cc3)C4=O)cc2n1` &field=half-life returns 30

GET /value?item= N=C(N)Nc1ncc(CN2C(=O)c3ccccc3C2C(=O)NCc2ccc(F)cc2)s1 (centres undefined) &field=half-life returns 66

GET /value?item= CNC(=N)Nc1ncc(CN2C(=O)c3cc(F)ccc3C2C(=O)NCc2ccc(F)cc2)s1 (centres undefined) &field=half-life returns 42.6

GET /value?item= `Nc1nc2cc(CN3C(=O)c4cc(F)ccc4[C@]34CCN(Cc3ccc(F)cc3)C4=O)[nH]c2cc1F` &field=half-life returns 108
